Target: T1, cynomolgus monkey (Macaca fascicularis) FGF23 (R179Q) (cynomolgus monkey (Macaca fascicularis), UniProt Q9GZV9 25-251 (human entry), limits assumed)
T1 construct: also called cynoFGF23; cynoFGF23(R179Q)
T1 chain: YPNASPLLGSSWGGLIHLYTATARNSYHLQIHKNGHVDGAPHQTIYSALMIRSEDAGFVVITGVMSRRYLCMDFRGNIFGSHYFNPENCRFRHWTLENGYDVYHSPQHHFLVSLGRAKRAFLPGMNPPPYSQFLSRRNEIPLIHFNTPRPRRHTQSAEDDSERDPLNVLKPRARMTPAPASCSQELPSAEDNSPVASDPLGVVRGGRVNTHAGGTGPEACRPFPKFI
Test: SPR, antibody captured on hIgG chip, cynoFGF23(R179Q) analyte, single cycle kinetics
property-name: pKd
Keep it numeric: pKd is minus log10 of the concentration in mol/L.

Give its pKd value. Item: UGX203 (antibody, human IgG1, kappa, V domains shown, also called HC:S59E, LC:S52D; S59E/S52D) VH: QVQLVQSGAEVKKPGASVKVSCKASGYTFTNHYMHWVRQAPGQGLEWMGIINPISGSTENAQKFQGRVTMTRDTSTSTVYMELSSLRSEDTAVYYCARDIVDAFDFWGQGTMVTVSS VL: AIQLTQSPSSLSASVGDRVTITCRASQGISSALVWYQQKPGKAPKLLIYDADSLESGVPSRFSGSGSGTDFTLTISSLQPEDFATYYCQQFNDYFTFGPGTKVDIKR
10.64

Bench note: what pKd did UGX202 (antibody, human IgG1, kappa, V domains shown, also called HC:S59E, LC:N92Y; S59E/N92Y) VH: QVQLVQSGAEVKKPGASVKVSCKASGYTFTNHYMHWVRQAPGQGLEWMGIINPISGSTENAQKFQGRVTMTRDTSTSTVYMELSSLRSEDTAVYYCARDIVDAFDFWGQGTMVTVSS VL: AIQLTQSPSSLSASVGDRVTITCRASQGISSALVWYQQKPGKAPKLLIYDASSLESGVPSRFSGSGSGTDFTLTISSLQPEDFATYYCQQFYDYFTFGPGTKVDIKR show?
11.16

Data origin, for the record: patent US20260250371A1
